tested on: Hepatitis C virus; test: Antiviral activity against HCV 1b BB7 infected in human HuH7 cells assessed as total viral RNA level after 3 days by RT-PCR analysis; assay type: functional, Hepacivirus hominis, genotype 1b BB7, Huh-7
Threshold 2 µM: Activity strictly smaller gives T, otherwise F.

CCC[C@]1(CC(=O)O)OCCc2c1[nH]c1c(C)c(OCCn3cccn3)cc(C#N)c21; T
CCC[C@]1(C(=O)O)OCCc2c1[nH]c1c(C)ccc(C#N)c21; F
CCC[C@]1(CC(=O)O)OCCc2c1[nH]c1c(C)ccc(C#N)c21; F
CC[C@H](C)[C@]1(CC(=O)O)OCCc2c1[nH]c1c(C)c(OCCn3cccn3)cc(C#N)c21; T

Next up:
# input Identify whether the molecule CC[C@H](C)[C@]1(CC(=O)O)OCCc2c1[nH]c1c(C)ccc(C#N)c21 records Activity below 2 µM.
# output F
